# Tested on: A375 multi-cell spheroids with HUVEC/MSC, viability
# procedureText: Anticancer human tumor A375 cell line growth inhibition [GQUAD];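 further: spheroids exposed to compounds for seven days before readout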
# conditionNotes: second compound 1 µM; first compound 1 µM; stronger effect = lower value
Classify: t when viability, T/C is strictly less than 40%; f when viability, T/C is not.

1) Cc1cccc(N(C)C(=O)C2C(O)CCN2c2nc(C)cc(C(F)(F)F)c2C#N)c1 (stereo not given) + Cc1cnc(CNC(=O)c2c(=O)c3ccc(N4CCCN(C)CC4)nc3n3c2sc2ccccc23)cn1 ... f
2) CC1COCCN1c1cc(C2(S(C)(=N)=O)CC2)nc(-c2ccnc3[nH]ccc23)n1 (stereo not given) + Cc1[nH]c2ccc(F)cc2c1-c1nc2c3cccnc3c3ncccc3c2[nH]1 ... f
3) C=CC(=O)N1CCN(c2nc(=O)n(-c3c(C)ccnc3C(C)C)c3nc(-c4c(O)cccc4F)c(F)cc23)C(C)C1 (stereo not given) + Cc1cnc(CNC(=O)c2c(=O)c3ccc(N4CCCN(C)CC4)nc3n3c2sc2ccccc23)cn1 ... f
4) CC(=O)O[C@H]1C(=O)[C@@]2(C)[C@H]([C@H](OC(=O)c3ccccc3)[C@]3(O)C[C@H](OC(=O)[C@H](O)[C@@H](NC(=O)c4ccccc4)c4ccccc4)C(C)=C1C3(C)C)[C@]1(OC(C)=O)CO[C@@H]1C[C@@H]2O + Cc1cnc(CNC(=O)c2c(=O)c3ccc(N4CCCN(C)CC4)nc3n3c2sc2ccccc23)cn1 ... t

###

# System: A375 multi-cell spheroids with HUVEC/MSC, viability
# procedureText: Anticancer human tumor A375 cell line growth inhibition [GQUAD]; active = viability on the fitted dose curve at most 10% of control; inactive = the rest;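 further: spheroids exposed to compounds for seven days before readout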
# conditionNotes: second compound 3.16 µM; first compound 10 µM
# Source text: DNA G-quadruplex Stabilizer Agents in Combinations in Complex Spheroids A high-throughput screen of multi-cell type tumor spheroids was designed to identify active combinations of DNA G-quadruplex stabilizer agents and targeted small molecules. […] Compounds. […] If the clinical Cmax for an agent had not been determined, the highest concentration tested was 10 microM. […]
Classes used: yes = active, no = inactive

1. COc1ncnc(C2CC2)c1-c1ncc2cnn(Cc3ccc(-c4nc(C(F)(F)F)cn4C(C)C)cc3)c2n1 + CN(C)c1ccc(Nc2c3ccc(NC(=O)CCN4CCCC4)cc3nc3cc(NC(=O)CCN4CCCC4)ccc23)cc1 ... no
2. Nc1ccn(C2OC(CO)C(O)C2(F)F)c(=O)n1 (stereo not given) + Cc1cnc(CNC(=O)c2c(=O)c3ccc(N4CCCN(C)CC4)nc3n3c2sc2ccccc23)cn1 ... yes
3. COc1cc(C2c3cc4c(cc3C(OC3OC5COC(C)OC5C(O)C3O)C3COC(=O)C23)OCO4)cc(OC)c1O (stereo not given) + Cc1[nH]c2ccc(F)cc2c1-c1nc2c3cccnc3c3ncccc3c2[nH]1 ... no
4. Nc1ccn(C2OC(CO)C(O)C2(F)F)c(=O)n1 (stereo not given) + Cc1[nH]c2ccc(F)cc2c1-c1nc2c3cccnc3c3ncccc3c2[nH]1 ... no
5. CC(=O)O[C@H]1C(=O)[C@@]2(C)[C@H]([C@H](OC(=O)c3ccccc3)[C@]3(O)C[C@H](OC(=O)[C@H](O)[C@@H](NC(=O)c4ccccc4)c4ccccc4)C(C)=C1C3(C)C)[C@]1(OC(C)=O)CO[C@@H]1C[C@@H]2O + Cc1[nH]c2ccc(F)cc2c1-c1nc2c3cccnc3c3ncccc3c2[nH]1 ... no
